test: Bioavailability in mouse (BALB/C) (dose 50 mg/kg p.o.)
study-conditions: in vivo, po
assay-readout: bioavailability (%)

Problem: Query: bioavailability; subject: "CCNC(=O)c1c2n(c3c(N4CCN(CCc5ccc(F)c(F)c5)CC4)ncnc13)CCCC2"
Result: 50

Problem: What bioavailability value was documented for this compound, "NC(=O)c1c2n(c3c(N4CCN(CCc5ccc(F)c(F)c5)CC4)ncnc13)CCCC2" ?
Result: 71.6

Problem: Look up bioavailability: "O=C(Nc1cccnc1)c1c2n(c3c(N4CCN(CCc5ccc(F)c(F)c5)CC4)ncnc13)CCCC2"
Result: 55.5

###

test: Area under curve when injected perorally in BALB/C mice at a dose of 50 mg/kg
Format: ADME, organism-based
Parameters: dose 50 mg/kg, route oral
study-conditions: mouse, in vivo, po
assay-readout: AUC (ng·h/mL)

Problem: Item "O=C(Nc1cccnc1)c1c2n(c3c(N4CCN(CCc5ccc(F)c(F)c5)CC4)ncnc13)CCCC2" has what recorded AUC?
Result: 56400

a. NC(=O)c1c2n(c3c(N4CCN(CCc5ccc(F)c(F)c5)CC4)ncnc13)CCCC2
b. CCNC(=O)c1c2n(c3c(N4CCN(CCc5ccc(F)c(F)c5)CC4)ncnc13)CCCC2
Problem: I'm curious whether a or b has the smaller AUC number. Which is it? Select an item and report its label.
Result: b

###

test: Half life in BALB/C mice at the dose of 50 mg/kg by p.o. administration
study-conditions: mouse, in vivo, po
assay-readout: half-life (h)
Give the quantity in h, number only.

Problem: Need half-life, item "NC(=O)c1c2n(c3c(N4CCN(CCc5ccc(F)c(F)c5)CC4)ncnc13)CCCC2"
Result: 6.86

###

test: Area under curve when injected intraperitoneally in BALB/C mice at a dose of 20 mg/kg
Format: ADME, organism-based
Parameters: dose 20 mg/kg, route intraperitoneal
study-conditions: mouse, in vivo, ip
assay-readout: AUC (ng·h/mL)

Problem: Looking for the measured AUC of "NC(=O)c1c2n(c3c(N4CCN(CCc5ccc(F)c(F)c5)CC4)ncnc13)CCCC2" , can you help?
Result: 13100

Problem: Entry "CCNC(=O)c1c2n(c3c(N4CCN(CCc5ccc(F)c(F)c5)CC4)ncnc13)CCCC2" : reported AUC = ?
Result: 14600

###

test: Maximal plasma concentration in BALB/C mice after 20 mg/kg intraperitoneal dose
Type: ADME, organism-based
Design: dose 20 mg/kg, route intraperitoneal
study-conditions: mouse, ip
assay-readout: Cmax (µM)

a. NC(=O)c1c2n(c3c(N4CCN(CCc5ccc(F)c(F)c5)CC4)ncnc13)CCCC2
b. CCNC(=O)c1c2n(c3c(N4CCN(CCc5ccc(F)c(F)c5)CC4)ncnc13)CCCC2
Problem: // task: argmin of Cmax over [ a , b ] Write the label of whichever entry you select.
Result: a

###

assay-target: Multidrug resistance-associated protein 1 (Homo sapiens, UniProt P33527)
Sequence (P33527 whole entry): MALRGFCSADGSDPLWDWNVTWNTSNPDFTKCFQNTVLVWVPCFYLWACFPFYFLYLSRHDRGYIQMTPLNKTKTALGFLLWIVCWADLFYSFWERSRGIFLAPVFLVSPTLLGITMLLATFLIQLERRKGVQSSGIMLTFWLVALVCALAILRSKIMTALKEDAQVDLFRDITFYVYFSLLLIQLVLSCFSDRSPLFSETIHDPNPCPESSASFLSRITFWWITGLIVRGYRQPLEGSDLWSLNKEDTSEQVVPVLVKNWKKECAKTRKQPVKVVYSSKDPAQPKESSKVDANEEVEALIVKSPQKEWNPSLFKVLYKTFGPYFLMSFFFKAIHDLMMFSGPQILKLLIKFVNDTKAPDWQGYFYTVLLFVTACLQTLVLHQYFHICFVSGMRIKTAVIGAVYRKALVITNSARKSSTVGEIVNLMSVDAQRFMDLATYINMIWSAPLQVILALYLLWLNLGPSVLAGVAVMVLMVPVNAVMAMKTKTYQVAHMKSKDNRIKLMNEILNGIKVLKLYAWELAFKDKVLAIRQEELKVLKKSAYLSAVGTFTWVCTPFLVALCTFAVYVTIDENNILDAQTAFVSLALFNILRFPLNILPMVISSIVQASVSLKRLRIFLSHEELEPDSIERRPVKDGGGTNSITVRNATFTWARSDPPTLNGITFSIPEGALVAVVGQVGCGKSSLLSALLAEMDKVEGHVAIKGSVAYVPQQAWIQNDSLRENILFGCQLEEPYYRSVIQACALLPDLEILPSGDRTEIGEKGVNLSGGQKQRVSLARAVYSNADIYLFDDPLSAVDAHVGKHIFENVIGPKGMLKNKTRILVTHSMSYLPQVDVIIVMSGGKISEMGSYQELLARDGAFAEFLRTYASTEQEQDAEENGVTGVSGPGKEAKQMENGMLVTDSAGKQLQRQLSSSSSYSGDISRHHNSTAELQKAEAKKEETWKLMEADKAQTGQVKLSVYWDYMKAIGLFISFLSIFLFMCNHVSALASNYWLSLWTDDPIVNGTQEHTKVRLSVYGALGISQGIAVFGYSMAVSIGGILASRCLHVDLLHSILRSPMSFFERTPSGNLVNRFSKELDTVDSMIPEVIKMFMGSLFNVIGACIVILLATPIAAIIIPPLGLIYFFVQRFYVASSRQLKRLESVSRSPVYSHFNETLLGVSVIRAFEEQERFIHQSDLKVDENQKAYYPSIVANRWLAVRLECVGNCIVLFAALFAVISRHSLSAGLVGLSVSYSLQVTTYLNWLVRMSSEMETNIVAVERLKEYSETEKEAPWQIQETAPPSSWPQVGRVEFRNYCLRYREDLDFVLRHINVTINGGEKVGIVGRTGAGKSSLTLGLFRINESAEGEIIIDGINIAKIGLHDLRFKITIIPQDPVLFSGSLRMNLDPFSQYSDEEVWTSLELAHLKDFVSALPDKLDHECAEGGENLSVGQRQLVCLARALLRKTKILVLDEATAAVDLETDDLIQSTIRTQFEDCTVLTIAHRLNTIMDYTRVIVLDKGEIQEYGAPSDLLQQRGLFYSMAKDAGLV
test: Inhibitory activity against human transporter MRP1 (Multidrug resistance associated protein 1) expressed in COR.L23/R cell line
assay-readout: IC50 (nM)

Below are worked cases with known answers.
Problem: Fill in: IC50 of "O=C(NCc1ccccn1)c1c2n(c3c(N4CCN(CCc5ccc(F)c(F)c5)CC4)ncnc13)CCCC2" is ___
Result: 61

Problem: What value of measured IC50 is listed for "N#Cc1c2n(c3c(N4CCN(CCc5cccc([N+](=O)[O-])c5)CC4)ncnc13)CCCC2" ?
Result: 410

Problem: Consider the molecule shown here: "N#Cc1c2n(c3c(N4CCN(CCc5ccc([N+](=O)[O-])cc5)CC4)ncnc13)CCCC2" What is its recorded IC50?
Result: 523

Problem: What measured IC50 goes with "COc1cccc(CNC(=O)c2c3n(c4c(N5CCN(CCc6ccc(F)c(F)c6)CC5)ncnc24)CCCC3)c1OC" ?
Result: 43

Problem: Name the recorded IC50 for "N#Cc1c2n(c3c(N4CCN(CCc5ccccc5)CC4)nc(I)nc13)CCCC2" .
Result: 887

Problem: Returns the measured IC50 for the input molecule. Input: "N#Cc1c2n(c3c(N4CCN(CCc5ccc(F)c(F)c5)CC4)nc(-c4ccncc4)nc13)CCCC2"
Result: 105

Problem: For "N#Cc1c2n(c3c(N4CCN(CCc5c[nH]c6ccccc56)CC4)ncnc13)CCCC2" , what is its reported IC50?
Result: 600

P. CCC(=O)c1c2n(c3c(N4CCN(CCc5ccccc5)CC4)ncnc13)CCCC2
Q. COC(=O)c1c2n(c3c(N4CCN(CCc5ccccc5)CC4)ncnc13)CCCC2
Problem: Which one would you say has the larger IC50 value: P , or Q ? Identify your selection by its label.
Result: P
